Molecular target: T1, CDK9/cyclin T1(h) (Homo sapiens, UniProt P50750)
T1 construct: purchased Eurofins (KinaseProfiler service)
T1 sequence (P50750 whole entry): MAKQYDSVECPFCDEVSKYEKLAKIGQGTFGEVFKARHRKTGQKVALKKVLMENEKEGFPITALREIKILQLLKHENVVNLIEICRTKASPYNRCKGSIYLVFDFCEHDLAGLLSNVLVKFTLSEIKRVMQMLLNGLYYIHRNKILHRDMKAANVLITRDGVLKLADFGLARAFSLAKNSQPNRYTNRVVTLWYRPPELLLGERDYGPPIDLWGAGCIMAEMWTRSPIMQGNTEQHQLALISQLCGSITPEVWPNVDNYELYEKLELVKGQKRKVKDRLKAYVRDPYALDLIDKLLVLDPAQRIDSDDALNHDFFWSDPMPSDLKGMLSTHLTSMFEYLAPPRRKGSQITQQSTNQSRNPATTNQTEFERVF
T1 sequence (O60563 whole entry partner): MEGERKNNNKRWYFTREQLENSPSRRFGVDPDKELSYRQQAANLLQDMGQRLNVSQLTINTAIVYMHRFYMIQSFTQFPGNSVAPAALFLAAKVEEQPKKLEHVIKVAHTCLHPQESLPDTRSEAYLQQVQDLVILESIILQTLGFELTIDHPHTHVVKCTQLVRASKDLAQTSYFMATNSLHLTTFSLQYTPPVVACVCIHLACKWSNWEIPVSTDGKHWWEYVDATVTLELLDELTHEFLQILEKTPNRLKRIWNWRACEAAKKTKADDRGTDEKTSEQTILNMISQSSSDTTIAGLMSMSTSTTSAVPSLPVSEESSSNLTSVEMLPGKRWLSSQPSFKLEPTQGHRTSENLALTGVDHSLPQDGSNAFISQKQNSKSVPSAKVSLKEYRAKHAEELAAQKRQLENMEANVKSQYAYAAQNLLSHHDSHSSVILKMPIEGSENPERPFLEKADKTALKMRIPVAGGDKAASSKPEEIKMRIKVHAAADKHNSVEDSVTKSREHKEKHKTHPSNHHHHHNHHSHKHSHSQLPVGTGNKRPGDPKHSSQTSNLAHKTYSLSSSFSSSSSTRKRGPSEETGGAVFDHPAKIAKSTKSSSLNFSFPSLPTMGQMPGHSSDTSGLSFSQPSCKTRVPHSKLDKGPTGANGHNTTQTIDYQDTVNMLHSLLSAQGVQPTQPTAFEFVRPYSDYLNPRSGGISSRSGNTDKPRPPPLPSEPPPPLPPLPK
Assay: Kinase inhibition assay (Eurofins KinaseProfiler)
Assay type: biochemical
Conditions: ATP at Km
Method: Kinase inhibition profiles were determined using KinaseProfiler services provided by Eurofins, and ATP concentrations used are the Km of corresponding kinases. CDK9/cyclinT1 (h) was incubated with 8 mM MOPS pH 7.0, 0.2 mM EDTA, 100 uM […], 10 mM MgAcetate and [gamma-33P]-ATP (specific activity and concentration as required). All the reactions above were initiated by the addition of the Mg/ATP mix. […]
Property measured: IC50 (nM)
Give a bare numeral; the unit nM is implied.

# query: IC50 | item CC(C)n1nnc2ccc(-c3nc(Nc4ccc(CNC(=O)C5(C(=O)Nc6ccccc6)CC5)cc4)ncc3F)cc21 [12O] | system: T1, CDK9/cyclin T1(h) (Homo sapiens, UniProt P50750)
9
